- Tested on: HOP-62 NSCLC
- assayText: NCI tumour cell line growth inhibition, 48 h
experimentalReadout: log10 TGI (log10 of the value in µM)
Short version: log10 scale, TGI, µM.

Consider the following illustrative entries.
INSERT INTO assay_data (compound, observedmeasurement) VALUES
  ('CCN(CC)c1ccc(-c2cc(-c3cc(OC)c(OC)c(OC)c3)nc(N3CCC(O)CC3)c2C#N)cc1', 1.08),
  ('C=C1C(=O)O[C@H]2[C@H]1CC/C(COC(=O)/C=C\C(=O)NCc1ccc(Cn3c(=O)sn(CCI)c3=O)cc1)=C\CC[C@@]1(C)O[C@@H]21', 1.46),
  ('CCC1(CC)N=C(C(F)(F)F)c2cc(C(=O)C(F)(F)F)c3ccccc3c2N1', 1.45),
  ('COc1ccc2c(c1)C(OC)C1c3c(cc4c(c3-2)OCO4)CCN1C (centres undefined)', 0.92),
  ('CCCCCCCCCCNCCSS(=O)(=O)O', 0.55),
  ('CCCCCCCCCCCCN=C(N)c1ccc(N2CCN(c3ccc(C(N)=NCCCCCCCCCCCC)cc3)CC2)cc1', 1.16);

Req: Requested read-out: log10 TGI. Entry: O=C(NCCOCCOCCOCCNC(=O)c1cc2c(o1)C(=O)c1ccccc1C2=O)NC12CC3CC(CC(C3)C1)C2
Resp: 0.55

Req: Requested read-out: log10 TGI. Entry: O=C1OCC(c2ccc(Cl)cc2)=C1Cl
Resp: 1.75

Req: Requested read-out: log10 TGI. Entry: O=C(/C=C/c1ccccn1)c1ccc(OCc2nnc(-c3ccc(Cl)cc3)o2)cc1
Resp: 0.75
